Each recorded value in this set is attributed to patent US20170081400A1.

Each entry below carries its recorded TL1A Binding Level (Late).
- target_entity: T1, human TL1A extracellular domain with N-terminal HIS and FLAG tag (human, UniProt O95150 72-251)
- T1 construct: the whole entry is named
- T1 sequence: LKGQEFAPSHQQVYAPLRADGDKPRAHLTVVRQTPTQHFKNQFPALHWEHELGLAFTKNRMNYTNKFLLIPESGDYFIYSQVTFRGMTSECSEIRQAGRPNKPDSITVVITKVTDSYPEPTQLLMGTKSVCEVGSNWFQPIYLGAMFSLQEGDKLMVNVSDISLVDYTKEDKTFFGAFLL
- run_description: SPR Run 6, purified Ab captured on Protein A, TL1A 5 ug/mL, timepoint 170
A complete answer gives the number followed by the unit.

Example binders with recorded TL1A Binding Level (Late):
{"columns": ["binder", "TL1A Binding Level (Late)"],
 "data": [
  ["320-478 (antibody, human IgG1, name in Kabat numbering, V domains shown, human IgG1, lambda) VH: QVQLVQSGAEVKKPGASVKVSCKASGYTFTSYDINWVRQAPGQGLEWMGWLNPNSGNTGYLQKFQGRVTMTADRSTSTAYMELSSLRSEDTAVYYCAREVPETAAFEYWGQGTLVTVSS VL: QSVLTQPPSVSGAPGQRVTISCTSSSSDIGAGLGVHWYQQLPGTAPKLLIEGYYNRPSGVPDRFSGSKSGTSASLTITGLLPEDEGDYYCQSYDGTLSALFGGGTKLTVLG", "77 RU"],
  ["320-432 (antibody, human IgG1, name in Kabat numbering, V domains shown, human IgG1, lambda) VH: QVQLVQSGAEVKKPGASVKVSCKASGYTFTQYDINWVRQAPGQGLEWMGWLNPNSGNTGYAQKFQGRVTMTADRSTSTAYMELSSLRSEDTAVYYCAREVPETAAFEYWGQGTLVTVSS VL: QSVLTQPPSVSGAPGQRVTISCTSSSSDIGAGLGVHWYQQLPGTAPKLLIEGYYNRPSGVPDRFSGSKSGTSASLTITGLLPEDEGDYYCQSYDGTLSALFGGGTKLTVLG", "106 RU"],
  ["320-453 (antibody, human IgG1, name in Kabat numbering, V domains shown, human IgG1, lambda) VH: QVQLVQSGAEVKKPGASVKVSCKASGYTFTSYYINWVRQAPGQGLEWMGWLNPNSGNTGYAQKFQGRVTMTADRSTSTAYMELSSLRSEDTAVYYCAREVPETAAFEYWGQGTLVTVSS VL: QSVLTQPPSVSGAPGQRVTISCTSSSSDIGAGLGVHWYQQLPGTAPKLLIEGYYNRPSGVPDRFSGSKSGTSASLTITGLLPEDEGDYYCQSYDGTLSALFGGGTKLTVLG", "104 RU"]
]}

Looking for the measured TL1A Binding Level (Late) of 320-466 (antibody, human IgG1, name in Kabat numbering, V domains shown, human IgG1, lambda) VH: QVQLVQSGAEVKKPGASVKVSCKASGYTFTSYDIDWVRQAPGQGLEWMGWLNPNSGNTGYAQKFQGRVTMTADRSTSTAYMELSSLRSEDTAVYYCAREVPETAAFEYWGQGTLVTVSS VL: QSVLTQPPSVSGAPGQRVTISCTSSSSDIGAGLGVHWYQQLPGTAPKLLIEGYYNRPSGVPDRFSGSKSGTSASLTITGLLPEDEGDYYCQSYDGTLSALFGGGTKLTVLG , can you help?
86 RU
